test system: Cryptococcus neoformans TIMM 0354; assay: MIC by agar dilution method, casitone agar; type: cell-based; details: Table 5
Starred links: 1 amine or outer side, 2 acyl side, 3 side chain; linkers in the order of their positions; H or OH if unused. Non-standard residues stand in square brackets, D forms with d. Residues, ends and D or L forms follow the SMILES beside them. ξ: configuration not given here. X2 = CN(C(C(=O)[*:2])C(O)c1ccccc1)[*:1]; ξNMeVal(3-OH) = CNC(C(=O)O)C(C)(C)O; NMeF = CN[CH](Cc1ccccc1)C(=O)O; X1 = CCC(C)C(O[*:1])C(=O)[*:2]; NMeV = CN[CH](C(=O)O)C(C)C; Hiv = CC(C)[CH](O)C(=O)O
Reported minimum inhibitory concentration (MIC) values for a set of compounds
Respond with the number and no other words.

compound: CCC(C)C1NC(=O)C2CCCN2C(=O)C(Cc2ccccc2)N(C)C(=O)C(Cc2ccccc2)NC(=O)C(C(C)C)N(C)C(=O)C(C(C)CC)OC(=O)C(C(O)c2ccccc2)N(C)C(=O)C(CC(C)C)NC(=O)C(C(C)C)N(C)C1=O (stereo not drawn) [Compound 15] (cyclo([X2][X1][NMeV]F[NMeF]PI[NMeV]L); configuration not given here)
minimum inhibitory concentration (MIC): 25

Next up:
Param item: CCC(C)C1NC(=O)C2CCCN2C(=O)C(Cc2ccccc2)N(C)C(=O)C(Cc2ccccc2)NC(=O)C(C(C)C)N(C)C(=O)C(C(C)C)OC(=O)C(C(C)(C)O)N(C)C(=O)C(CC(C)C)NC(=O)C(C(C)C)N(C)C1=O (stereo not drawn) [Compound 2] (cyclo([ξNMeVal(3-OH)][Hiv][NMeV]F[NMeF]PI[NMeV]L); configuration not given here) ; param system: Cryptococcus neoformans TIMM 0354; output minimum inhibitory concentration (MIC): 1.56

---

assay: 50% lethal dose (LD50) in mice; assay type: in vivo; conditions: i.p.
Starred links: 1 amine or outer side, 2 acyl side, 3 side chain; linkers in the order of their positions; H or OH if unused. Non-standard residues stand in square brackets, D forms with d. Residues, ends and D or L forms follow the SMILES beside them. ξ: configuration not given here. X2 = CN(C(C(=O)[*:2])C(O)c1ccccc1)[*:1]; ξNMeVal(3-OH) = CNC(C(=O)O)C(C)(C)O; NMeF = CN[CH](Cc1ccccc1)C(=O)O; X1 = CCC(C)C(O[*:1])C(=O)[*:2]; NMeV = CN[CH](C(=O)O)C(C)C; Hiv = CC(C)[CH](O)C(=O)O
parameter_measured: LD50

In the examples that follow, each entry is paired with its recorded LD50.
molecule: CCC(C)C1NC(=O)C2CCCN2C(=O)C(Cc2ccccc2)N(C)C(=O)C(Cc2ccccc2)NC(=O)C(C(C)C)N(C)C(=O)C(C(C)CC)OC(=O)C(C(C)(C)O)N(C)C(=O)C(CC(C)C)NC(=O)C(C(C)C)N(C)C1=O (centres unmarked) [Compound 1] (cyclo([ξNMeVal(3-OH)][X1][NMeV]F[NMeF]PI[NMeV]L); configuration not given here)
parameter_measured: LD50
result: > 400 mg/kg
--
molecule: CCC(C)C1NC(=O)C2CCCN2C(=O)C(Cc2ccccc2)N(C)C(=O)C(Cc2ccccc2)NC(=O)C(C(C)C)N(C)C(=O)C(C(C)C)OC(=O)C(C(C)(C)O)N(C)C(=O)C(CC(C)C)NC(=O)C(C(C)C)N(C)C1=O (centres unmarked) [Compound 2] (cyclo([ξNMeVal(3-OH)][Hiv][NMeV]F[NMeF]PI[NMeV]L); configuration not given here)
parameter_measured: LD50
result: > 200 mg/kg
--
molecule: CCC(C)C1NC(=O)C2CCCN2C(=O)C(C(O)c2ccccc2)N(C)C(=O)C(Cc2ccccc2)NC(=O)C(C(C)C)N(C)C(=O)C(C(C)CC)OC(=O)C(C(C)(C)O)N(C)C(=O)C(CC(C)C)NC(=O)C(C(C)C)N(C)C1=O (centres unmarked) [Compound 5] (cyclo([X2]PI[NMeV]L[ξNMeVal(3-OH)][X1][NMeV]F); configuration not given here)
parameter_measured: LD50
result: > 200 mg/kg
--
molecule: CCC(C)C1OC(=O)C(C(C)(C)O)N(C)C(=O)C(CC(C)C)NC(=O)C(C(C)C)N(C)C(=O)C(CC(C)C)NC(=O)C2CCCN2C(=O)C(Cc2ccccc2)N(C)C(=O)C(Cc2ccccc2)NC(=O)C(C(C)C)N(C)C1=O (centres unmarked) [Compound 9] (cyclo([ξNMeVal(3-OH)][X1][NMeV]F[NMeF]PL[NMeV]L); configuration not given here)
parameter_measured: LD50
result: > 200 mg/kg

Next up:
Please fill in: LD50 reported for CCC(C)C1NC(=O)C2CCCN2C(=O)C(Cc2ccccc2)N(C)C(=O)C(Cc2ccccc2)NC(=O)C(C(C)C)N(C)C(=O)C(C(C)CC)OC(=O)C(C(C)C)N(C)C(=O)C(CC(C)C)NC(=O)C(C(C)C)N(C)C1=O (centres unmarked) [Compound 7] (cyclo([X1][NMeV]F[NMeF]PI[NMeV]L[NMeV]); configuration not given here) = > 200 mg/kg

---

system: Cryptococcus neoformans TIMM 0354; experiment: MIC by agar dilution method, casitone agar; format: cell-based; conditions: Table 5
Starred links: 1 amine or outer side, 2 acyl side, 3 side chain; linkers in the order of their positions; H or OH if unused. Non-standard residues stand in square brackets, D forms with d. Residues, ends and D or L forms follow the SMILES beside them. ξ: configuration not given here. X2 = CN(C(C(=O)[*:2])C(O)c1ccccc1)[*:1]; ξNMeVal(3-OH) = CNC(C(=O)O)C(C)(C)O; X5 = CC(CO)C(C(=O)[*:2])N(C)[*:1]; NMeF = CN[CH](Cc1ccccc1)C(=O)O; X1 = CCC(C)C(O[*:1])C(=O)[*:2]; NMeV = CN[CH](C(=O)O)C(C)C; Hiv = CC(C)[CH](O)C(=O)O
parameter_measured: minimum inhibitory concentration (MIC)

In the examples that follow, each entry is paired with its recorded minimum inhibitory concentration (MIC).
compound: CCC(C)C1NC(=O)C2CCCN2C(=O)C(Cc2ccccc2)N(C)C(=O)C(Cc2ccccc2)NC(=O)C(C(C)C)N(C)C(=O)C(C(C)CC)OC(=O)C(C(C)CO)N(C)C(=O)C(CC(C)C)NC(=O)C(C(C)C)N(C)C1=O (stereo not shown) [Compound 4] (cyclo([X5][X1][NMeV]F[NMeF]PI[NMeV]L); configuration not given here)
result: 25
//
compound: CCC(C)C1NC(=O)C2CCCN2C(=O)C(C(O)c2ccccc2)N(C)C(=O)C(Cc2ccccc2)NC(=O)C(C(C)C)N(C)C(=O)C(C(C)CC)OC(=O)C(C(C)(C)O)N(C)C(=O)C(CC(C)C)NC(=O)C(C(C)C)N(C)C1=O (stereo not shown) [Compound 5] (cyclo([X2]PI[NMeV]L[ξNMeVal(3-OH)][X1][NMeV]F); configuration not given here)
result: 3.12
//
compound: CCC(C)C1OC(=O)C(C(C)(C)O)N(C)C(=O)C(CC(C)C)NC(=O)C(C(C)C)N(C)C(=O)C(CC(C)C)NC(=O)C2CCCN2C(=O)C(Cc2ccccc2)N(C)C(=O)C(Cc2ccccc2)NC(=O)C(C(C)C)N(C)C1=O (stereo not shown) [Compound 9] (cyclo([ξNMeVal(3-OH)][X1][NMeV]F[NMeF]PL[NMeV]L); configuration not given here)
result: 25

Please fill in: minimum inhibitory concentration (MIC) reported for CCC(C)C1NC(=O)C2CCCN2C(=O)C(Cc2ccccc2)N(C)C(=O)C(Cc2ccccc2)NC(=O)C(C(C)C)N(C)C(=O)C(C(C)C)OC(=O)C(C(C)C)N(C)C(=O)C(CC(C)C)NC(=O)C(C(C)C)N(C)C1=O (stereo not shown) [Compound 11] (cyclo(F[NMeF]PI[NMeV]L[NMeV][Hiv][NMeV]); configuration not given here) = > 25

---

Tested on: Cryptococcus neoformans TIMM 0354
Experiment: MIC by agar dilution method, casitone agar
Type: cell-based
Conditions: Table 5
Description: The minimum inhibitory concentration (MIC) of each antibiotic against various fungi was determined by the agar dilution method using casitone agar medium (2.0% glucose, 0.9% bacto-casitone, 1.0% yeast extract, 0.1% KH2 PO4, 0.1% Na2 HPO4, 1.0% sodium citrate, 2.0% agar: concentrations are all by w/v). Each minimum growth inhibitory concentration was determined after culturing at 27° C. for 4 days.
Starred links: 1 amine or outer side, 2 acyl side, 3 side chain; linkers in the order of their positions; H or OH if unused. Non-standard residues stand in square brackets, D forms with d. Residues, ends and D or L forms follow the SMILES beside them. ξ: configuration not given here. X4 = CC(C(=O)O)C(C(=O)[*:2])N(C)[*:1]; ξNMeVal(3-OH) = CNC(C(=O)O)C(C)(C)O; X3 = C=C(C)C(C(=O)[*:2])N(C)[*:1]; X6 = CC(C)=C(C(=O)[*:2])N(C)[*:1]; NMeF = CN[CH](Cc1ccccc1)C(=O)O; X1 = CCC(C)C(O[*:1])C(=O)[*:2]; NMeV = CN[CH](C(=O)O)C(C)C
Reported minimum inhibitory concentration (MIC) values for a set of compounds

In the examples that follow, each entry is paired with its recorded minimum inhibitory concentration (MIC).
compound: CCC(C)C1NC(=O)C2CCCN2C(=O)C(Cc2ccccc2)N(C)C(=O)C(Cc2ccccc2)NC(=O)C(C(C)C)N(C)C(=O)C(C(C)CC)OC(=O)C(C(C)(C)O)N(C)C(=O)C(CC(C)C)NC(=O)C(C(C)C)NC1=O (stereo not drawn) [Compound 6] (cyclo([ξNMeVal(3-OH)][X1][NMeV]F[NMeF]PIVL); configuration not given here)
test_target: Cryptococcus neoformans TIMM 0354
result: 25

compound: CCC(C)C1NC(=O)C2CCCN2C(=O)C(Cc2ccccc2)N(C)C(=O)C(Cc2ccccc2)NC(=O)C(C(C)C)N(C)C(=O)C(C(C)CC)OC(=O)C(C(C)C(=O)O)N(C)C(=O)C(CC(C)C)NC(=O)C(C(C)C)N(C)C1=O (stereo not drawn) [Compound 10] (cyclo([X4][X1][NMeV]F[NMeF]PI[NMeV]L); configuration not given here)
test_target: Cryptococcus neoformans TIMM 0354
result: 25

compound: CCC(C)C1OC(=O)C(C(C)C)N(C)C(=O)C(CC(C)C)NC(=O)C(C(C)C)N(C)C(=O)C(C(C)C)NC(=O)C2CCCN2C(=O)C(Cc2ccccc2)N(C)C(=O)C(Cc2ccccc2)NC(=O)C(C(C)C)N(C)C1=O (stereo not drawn) [Compound 12] (cyclo([X1][NMeV]F[NMeF]PV[NMeV]L[NMeV]); configuration not given here)
test_target: Cryptococcus neoformans TIMM 0354
result: > 25

compound: CCC(C)C1NC(=O)C2CCCN2C(=O)C(Cc2ccccc2)N(C)C(=O)C(Cc2ccccc2)NC(=O)C(C(C)C)N(C)C(=O)C(C(C)CC)OC(=O)C(=C(C)C)N(C)C(=O)C(CC(C)C)NC(=O)C(C(C)C)N(C)C1=O (stereo not drawn) [Compound 18] (cyclo([X6][X1][NMeV]F[NMeF]PI[NMeV]L); configuration not given here)
test_target: Cryptococcus neoformans TIMM 0354
result: > 25

compound: CCC(C)C1NC(=O)C2CCCN2C(=O)C(Cc2ccccc2)N(C)C(=O)C(Cc2ccccc2)NC(=O)C(C(C)C)N(C)C(=O)C(C(C)CC)OC(=O)C(C(C)C)NC(=O)C(CC(C)C)NC(=O)C(C(C)C)N(C)C1=O (stereo not drawn) [Compound 8] (cyclo([X1][NMeV]F[NMeF]PI[NMeV]LV); configuration not given here)
test_target: Cryptococcus neoformans TIMM 0354
result: > 25

Please fill in: minimum inhibitory concentration (MIC) reported for C=C(C)C1C(=O)OC(C(C)CC)C(=O)N(C)C(C(C)C)C(=O)NC(Cc2ccccc2)C(=O)N(C)C(Cc2ccccc2)C(=O)N2CCCC2C(=O)NC(C(C)CC)C(=O)N(C)C(C(C)C)C(=O)NC(CC(C)C)C(=O)N1C (stereo not drawn) [Compound 14] (cyclo([X3][X1][NMeV]F[NMeF]PI[NMeV]L); configuration not given here) = > 25
